test system: CDS-ZH002 direct (CIC-DUX4 sarcoma cells right after isolation); experiment: differential drug sensitivity score (dDSS) relative to sarcoma reference cohort mean DSS (DSS units (0-100 scale difference)); higher = more selective sensitivity than reference sarcomas; conditions: exposure time: 72 h; concentration range: 10-10000 nM
Threshold check on differential drug sensitivity score: at or above -2 gives 1, strictly below gives 0.

Assess whether reported differential drug sensitivity score for "CN(C)/N=N/c1[nH]cnc1C(N)=O" sits at -2 or higher.
1

Assess whether reported differential drug sensitivity score for "C[C@H]1Oc2cc(cnc2N)-c2c(nn(C)c2C#N)CN(C)C(=O)c2ccc(F)cc21" sits at -2 or higher.
1

Assess whether reported differential drug sensitivity score for "C[C@@H]1CN(C(=O)c2ccc(NC(=O)c3cc(O[C@H](C)c4c(Cl)ccc(F)c4Cl)c(N)nn3)cc2)C[C@H](C)N1" sits at -2 or higher.
1

Assess whether reported differential drug sensitivity score for "COc1cc(NS(C)(=O)=O)ccc1Nc1c2ccccc2nc2ccccc12" sits at -2 or higher.
0

Assess whether reported differential drug sensitivity score for "COc1cccc2c1C(=O)c1c(O)c3c(c(O)c1C2=O)C[C@@](O)(C(=O)CO)C[C@@H]3O[C@H]1C[C@H](N)[C@H](O)[C@H](C)O1" sits at -2 or higher.
1

Assess whether reported differential drug sensitivity score for "Cc1c(-c2c(-c3ccc(F)o3)sc3ncnc(O[C@H](Cc4ccccc4OCc4ccnn4CC(F)(F)F)C(=O)O)c23)ccc(OCCN2CCN(C)CC2)c1Cl" sits at -2 or higher.
1

Assess whether reported differential drug sensitivity score for O=[P@]1(N(CCCl)CCCl)N[C@H](OO)CCO1 [Hydroperoxycyclophosphamide] sits at -2 or higher.
0

====

test system: CDS-ZH002 direct; assay: differential drug sensitivity score (dDSS) relative to sarcoma reference cohort mean DSS (DSS units (0-100 scale difference)); higher = more selective sensitivity than reference sarcomas; details: exposure time: 72 h; concentration range: 10-10000 nM
Threshold check on differential drug sensitivity score: at or above 0.1 gives 1.0, strictly below gives 0.0.

Assess whether reported differential drug sensitivity score for "CCN1CCN(Cc2ccc(Nc3ncc(F)c(-c4cc(F)c5nc(C)n(C(C)C)c5c4)n3)nc2)CC1" sits at 0.1 or higher.
1.0

Assess whether reported differential drug sensitivity score for "O=c1cc(-c2cccc3c2Sc2ccccc2S3)oc(N2CCOCC2)c1" sits at 0.1 or higher.
1.0

Assess whether reported differential drug sensitivity score for "CCc1cnn2c(NCc3ccc[n+]([O-])c3)cc(N3CCCC[C@H]3CCO)nc12" sits at 0.1 or higher.
1.0

Assess whether reported differential drug sensitivity score for "c1cn2cc(-c3ccc4cn[nH]c4c3)nc(Nc3ccc(N4CCOCC4)cc3)c2n1" sits at 0.1 or higher.
0.0

Assess whether reported differential drug sensitivity score for "Cc1c2oc3c(C)ccc(C(=O)N[C@@H]4C(=O)N[C@H](C(C)C)C(=O)N5CCC[C@H]5C(=O)N(C)CC(=O)N(C)[C@@H](C(C)C)C(=O)O[C@@H]4C)c3nc-2c(C(=O)N[C@@H]2C(=O)N[C@H](C(C)C)C(=O)N3CCC[C@H]3C(=O)N(C)CC(=O)N(C)[C@@H](C(C)C)C(=O)O[C@@H]2C)c(N)c1=O" sits at 0.1 or higher.
1.0

Assess whether reported differential drug sensitivity score for "Nc1ccn([C@@H]2O[C@H](CO)[C@@H](O)C2(F)F)c(=O)n1" sits at 0.1 or higher.
0.0

Assess whether reported differential drug sensitivity score for "O=C(c1ccc(F)c(F)c1Nc1ccc(I)cc1F)N1CC(O)([C@@H]2CCCCN2)C1" sits at 0.1 or higher.
0.0

Assess whether reported differential drug sensitivity score for "CO/N=C1\C[C@]2(C[C@@H]3C[C@@H](C/C=C(\C)C[C@@H](C)/C=C/C=C4\CO[C@@H]5[C@H](O)C(C)=C[C@@H](C(=O)O3)[C@]45O)O2)O[C@H](/C(C)=C/C(C)C)[C@H]1C" sits at 0.1 or higher.
0.0

Assess whether reported differential drug sensitivity score for "C[C@H](NC(=O)CCC(F)(F)F)C(=O)N[C@@H]1C(=O)N(CCO)c2ncccc2-c2ccccc21" sits at 0.1 or higher.
0.0

Assess whether reported differential drug sensitivity score for "CNCc1ccc(-c2[nH]c3cc(F)cc4c3c2CCNC4=O)cc1" sits at 0.1 or higher.
0.0

Assess whether reported differential drug sensitivity score for "COc1cc(OC)cc(N(CCNC(C)C)c2ccc3ncc(-c4cnn(C)c4)nc3c2)c1" sits at 0.1 or higher.
0.0

Assess whether reported differential drug sensitivity score for "CC(=O)[C@]1(O)Cc2c(O)c3c(c(O)c2[C@@H](O[C@H]2C[C@H](N)[C@H](O)[C@H](C)O2)C1)C(=O)c1ccccc1C3=O" sits at 0.1 or higher.
1.0

Assess whether reported differential drug sensitivity score for CCN(CC)CCCC(C)Nc1nc(C)cc(Nc2ccc3nc(C)cc(N)c3c2)n1 (stereo not drawn) sits at 0.1 or higher.
1.0

Assess whether reported differential drug sensitivity score for "CC(C)n1nc(-c2cc3cc(O)ccc3[nH]2)c2c(N)ncnc21" sits at 0.1 or higher.
0.0

Assess whether reported differential drug sensitivity score for "CCc1ccc(/C=C2/SC(=S)NC2=O)cc1" sits at 0.1 or higher.
0.0

Assess whether reported differential drug sensitivity score for "CCCS(=O)(=O)Nc1ccc(F)c(C(=O)c2c[nH]c3ncc(-c4ccc(Cl)cc4)cc23)c1F" sits at 0.1 or higher.
0.0

Assess whether reported differential drug sensitivity score for "CCS(=O)(=O)N1CCC([C@@H](C)n2c(C)c(C(=O)NCc3c(OC)cc(C)[nH]c3=O)c3ccccc32)CC1" sits at 0.1 or higher.
0.0

Assess whether reported differential drug sensitivity score for "Nc1nc2[nH]cnc2c(=S)[nH]1" sits at 0.1 or higher.
1.0

Assess whether reported differential drug sensitivity score for "Nc1ccccc1NC(=O)c1ccc(CNc2nccc(-c3cccnc3)n2)cc1" sits at 0.1 or higher.
0.0

Assess whether reported differential drug sensitivity score for "CN1CC[C@H](c2c(O)cc(O)c3c(=O)cc(-c4ccccc4Cl)oc23)[C@H](O)C1" sits at 0.1 or higher.
1.0

Assess whether reported differential drug sensitivity score for "COc1ccc(C2=N[C@@H](c3ccc(Cl)cc3)[C@@H](c3ccc(Cl)cc3)N2C(=O)N2CCNC(=O)C2)c(OC(C)C)c1" sits at 0.1 or higher.
1.0

Assess whether reported differential drug sensitivity score for "COc1cccc2c1C(=O)c1c(O)c3c(c(O)c1C2=O)C[C@@](O)(C(C)=O)C[C@@H]3O[C@H]1C[C@H](N)[C@H](O)[C@H](C)O1" sits at 0.1 or higher.
1.0

Assess whether reported differential drug sensitivity score for "CCCC(CCC)C(=O)O" sits at 0.1 or higher.
0.0

Assess whether reported differential drug sensitivity score for O=c1[nH]c2ccccc2n1C1CCN(CCCC(c2ccc(F)cc2)c2ccc(F)cc2)CC1 [Pimozide] sits at 0.1 or higher.
0.0

Assess whether reported differential drug sensitivity score for "Cn1c(=O)n(-c2ccc(C(C)(C)C#N)cc2)c2c3cc(-c4cnc5ccccc5c4)ccc3ncc21" sits at 0.1 or higher.
1.0

Assess whether reported differential drug sensitivity score for "CC(C)NCCCn1c(Sc2cc3c(cc2I)OCO3)nc2c(N)ncnc21" sits at 0.1 or higher.
0.0

Assess whether reported differential drug sensitivity score for CNC(=O)c1cc(Oc2ccc(NC(=O)Nc3ccc(Cl)c(C(F)(F)F)c3)c(F)c2)ccn1 [Regorafenib Monohydrate] sits at 0.1 or higher.
1.0

Source listed as the supplement of paper PMC12370961.
